These data points were gathered from ChEMBL document CHEMBL1201862.

Tested on: SF-268
Test: NCI tumour cell line growth inhibition, 48 h
Activity calls are given as the source filed them. No stated cut-off is given here; in the data, active = GI50 up to about 1.1 µM and inactive = higher.
measurementType: GI50

Task item: Item under review: O=C1C(=O)N(c2ccc(Cl)cc2Cl)C(=O)C(=O)C1c1nc2ccccc2o1 . Reported GI50?
Reply: > 100 µM (inactive)

Task item: Value lookup for GI50; key = CC1(C)CCN2C(=O)C34CCCC3CC21S4 (stereo unspecified)
Reply: > 100 µM (inactive)

Task item: // lookup GI50 for O/N=N/c1ccc([SH2]c2ccc3ccccc3c2)cn1
Reply: 22.3 µM (inactive)

Task item: Any idea what GI50 was measured for COc1ccc(-c2cc(-c3ccc(O)cc3O)c(C#N)c(=O)[nH]2)cc1 ?
Reply: 24.3 µM (inactive)

Task item: Entry Nc1ccn(C2CCC(CO)O2)c(=S)n1 (stereo unspecified) has what GI50?
Reply: > 100 µM (inactive)

Task item: Can you share its GI50? I mean this compound: CCOC(=O)C1CSCCSC1
Reply: > 100 µM (inactive)

Task item: Which measured GI50 value corresponds to Cc1cc(NC(=O)C(=O)Cc2cnc3ccccc3n2)c(S(=O)(=O)O)cc1Cl ?
Reply: > 100 µM (inactive)

Task item: What value of measured GI50 is listed for CCOc1ccc2nc(NC(=O)C(=O)C(C(=O)c3ccccc3-c3ccccc3)C3OC(=O)c4ccccc43)sc2c1 (stereo unspecified) ?
Reply: 19.8 µM (inactive)

Task item: Any idea what GI50 was measured for Cn1c2c(c3ccccc31)CCN1C(=O)CN(C(=O)C3CCCCC3)CC21 (stereo unspecified) ?
Reply: > 100 µM (inactive)

Task item: I am curious: what GI50 value has been reported for Cc1[nH]c2c(C)ccc(C)c2c1CC(=O)O ?
Reply: 44.2 µM (inactive)

Task item: For CCCCCC/C=C\CCCCCCCCCc1c(O)c(OC)cc(O)c1CN(C)C , what is its reported GI50?
Reply: > 10 µM (inactive)

---

Test system: CAKI-1
Assay: NCI tumour cell line growth inhibition, 48 h
Calls of active or inactive are those of the source. Cut-off read from the data, not from the text of the source: active = GI50 up to about 1.1 µM and inactive = higher.
measurementType: GI50

Task item: Under CAKI-1: GI50 value of CC(=O)c1cc([N+](=O)[O-])ccc1OCC(=O)O ?
Reply: > 100 µM (inactive)

Task item: // lookup GI50 | system=CAKI-1 | key= NNC(=O)Cn1ccnn1
Reply: > 100 µM (inactive)

Task item: Write down the reported GI50 of N=C(N)N/N=C/c1nc2n(c1[N+](=O)[O-])CCS2 , test system: CAKI-1.
Reply: > 100 µM (inactive)

Task item: GET /values?readout=GI50&system=CAKI-1&item= CCCCCCCCCCCCCCCCNc1ccn(C2CC(OP(=O)(O)OCC3OC(n4cc(CC)c(=O)[nH]c4=O)CC3O)C(CO)O2)c(=O)n1 (configuration not stated)
Reply: 42.9 µM (inactive)

Task item: Record Cc1ccc(NC(=O)CC/C(CC(=O)C(C)(C)C)=N/Nc2nnc(C)n2N)cc1C : what is its GI50 with CAKI-1?
Reply: > 100 µM (inactive)

Task item: Notebook: pull reported GI50 for CAKI-1, entry O=C1NC(N2CCCCC2)=N/C1=C\c1ccco1
Reply: > 100 µM (inactive)

Task item: Form field - read-out: GI50; system: CAKI-1; submitted item: N#C/C(=C\c1ccc(CP(=O)(O)O)cc1)C(N)=O
Reply: > 100 µM (inactive)

Task item: Kindly state the measured GI50 obtained for O=C(O)c1nnsc1-c1csnn1 with CAKI-1.
Reply: > 100 µM (inactive)

Task item: // map COC(=O)c1sc2c(=O)c(C(=O)OC)c(C(=O)OC)sc2c(=O)c1C(=O)OC to recorded GI50 (system: CAKI-1)
Reply: > 100 µM (inactive)

Task item: Any idea what GI50 came out for CC(C)Cc1cc(CCC(=O)Nc2ccccc2[N+](=O)[O-])nc(NC#N)n1 on CAKI-1?
Reply: > 100 µM (inactive)

Task item: Entry O=[N+]([O-])c1ccc2nc(=S)[nH]n2c1 , system CAKI-1: what GI50 was measured?
Reply: > 100 µM (inactive)

Task item: Requested read-out GI50, target or system CAKI-1, entry FC(F)(F)C1(C(F)(F)F)OC(Cl)(Cl)C(Cl)(Cl)O1
Reply: > 10 µM (inactive)

Task item: Record lookup: for CAKI-1, what GI50 belongs to CC(=O)OC(CCC1(C)OC1COc1ccc(CCNC(=O)c2ccccc2)cc1)C(C)(C)OC(C)=O (configuration not stated) ?
Reply: 19 µM (inactive)

Task item: Under CAKI-1: GI50 value of COc1ccc(OC)c(C(=O)c2cccc(C(=O)c3cc(OC)ccc3OC)n2)c1 ?
Reply: 71.8 µM (inactive)

Task item: Requested read-out GI50, target or system CAKI-1, entry COc1cc2c(cc1OC)C1C[C@]3(CCN1CC2)C(=O)N(c1ccccc1)C(=O)N3C(C)=O (some centres not stated)
Reply: > 200 µM (inactive)

Task item: What is its GI50 for CAKI-1? Entry: Cc1[nH]c2c(C)ccc(C)c2c1CC(=O)O
Reply: 43 µM (inactive)

Task item: Record lookup: for CAKI-1, what GI50 belongs to CN(C)c1ccc(/C=N/N=C2\C(=O)Nc3c(Cl)cc(Cl)cc32)cc1 ?
Reply: 55.8 µM (inactive)

Task item: Give recorded GI50 with CAKI-1 for the following molecule: Cc1cc(C)nc(SC(C)C(=O)N/N=C/c2ccc(OCc3ccccc3)cc2)n1 (configuration not stated)
Reply: 20.5 µM (inactive)

Task item: Form field - read-out: GI50; system: CAKI-1; submitted item: Cc1cn([C@H]2C[C@](C)(CO)N(C)O2)c(=O)[nH]c1=O
Reply: > 100 µM (inactive)

Task item: Short answer please: GI50, CAKI-1, entry Nc1ccc(Nc2cc(=O)[nH]c(=O)[nH]2)cc1Cl
Reply: > 100 µM (inactive)

Task item: Write down the reported GI50 of C=C1CCC([N+](=O)[O-])[C@](C)(N=O)CC[C@@H]2C1CC2(C)C (some centres not stated) , test system: CAKI-1.
Reply: 34 µM (inactive)

Task item: For CAKI-1, provide GI50 of Cc1ccc(S(=O)(=O)NNC(=O)Nc2ccc([N+](=O)[O-])cc2)cc1 please.
Reply: 65.8 µM (inactive)

Task item: Return GI50 measured with CAKI-1 given this molecule: NC1=NCCC1(c1ccccc1)c1ccccn1 (configuration not stated)
Reply: > 100 µM (inactive)

Task item: Quick check: GI50 on CAKI-1, item Cc1cc(C)c(S(=O)(=O)N(CCCN)OCCCN)c(C)c1 ?
Reply: > 100 µM (inactive)

Task item: Please provide the recorded GI50 for O=C(O)c1[nH]c(=O)[nH]c(=O)c1CN1CCCCC1 , tested on CAKI-1.
Reply: > 100 µM (inactive)

Task item: Form: Entry = CC1(C)OC2C(CO)OC(n3ccc(N)nc3=O)C2O1 (configuration not stated) | System = CAKI-1 | GI50 = ____
Reply: > 100 µM (inactive)

Task item: State its GI50 on CAKI-1: CC(=O)NCCC1CNc2ccccc21 (configuration not stated)
Reply: > 100 µM (inactive)

Task item: Request body: readout GI50, system CAKI-1, query O=C(c1cccs1)N1CCN(C(=O)c2cccs2)C1=S . Return the value.
Reply: 3.68 µM (inactive)

Task item: Return GI50 measured with CAKI-1 given this molecule: O=C(O)C(F)(F)C(F)(F)C(F)(F)C(F)(F)C(=O)O
Reply: > 100 µM (inactive)

Task item: // fetch CAKI-1 GI50 for COc1ccc([C@@H]2C[C@@H]3C(=O)OC(=O)[C@@H]3c3c2c2ccccc2n3C)cc1
Reply: > 100 µM (inactive)

Task item: Please state recorded GI50 (tested on CAKI-1) of C=C(C=O)[C@@H]1C2OC(=O)C(=C)[C@@H]2CC(O)[C@@]1(C)CC (some centres not stated)
Reply: 9.38 µM (inactive)

Task item: // fetch CAKI-1 GI50 for CCOC(=O)c1ccc(/N=N\c2ccc(N(CCC#N)CCC#N)cc2C)cc1
Reply: > 100 µM (inactive)

---

Assignment: determine reported GI50 for the given compounds.
System: SK-OV-3
Assay: NCI tumour cell line growth inhibition, 48 h
Activity calls are given as the source filed them. Rule as the data show it: active = GI50 up to about 1.1 µM and inactive = higher.

Task item: Under SK-OV-3: GI50 value of O=c1c2ccc(S(=O)(=O)c3ccc4c(=O)n5c6ccccc6nc5c5cccc3c45)c3cccc(c32)c2nc3ccccc3n12 ?
Reply: 5.26 µM (inactive)

Task item: Checklist item: GI50 tested on SK-OV-3, entry Nc1ccccc1Nc1ccccc1C(=O)[O-].Nc1ccccc1Nc1ccccc1C(=O)[O-].[Zn+2] , value?
Reply: > 100 µM (inactive)

Task item: Test system SK-OV-3; read-out GI50; what value for CC1(C)OC2C(CO)OC(n3ccc(N)nc3=O)C2O1 (configuration not stated) ?
Reply: > 100 µM (inactive)

Task item: Give recorded GI50 with SK-OV-3 for the following compound: O=C(NNS(=O)(=O)c1ccc(Br)cc1)c1ccc(Cl)cc1NC(=O)C12CC3CC(CC(C3)C1)C2
Reply: 16.4 µM (inactive)

Task item: API: value(readout=GI50, system=SK-OV-3) for record CCN(CC)CC1CCCCN1CC(=O)N1c2ccccc2C(=O)Nc2cccnc21 (configuration not stated)
Reply: > 100 µM (inactive)

Task item: What is its GI50 for SK-OV-3? Entry: Cc1ccc(CC2(OCCN(C)C)CCC(C(C)(C)C)CC2)cc1 (configuration not stated)
Reply: 8.17 µM (inactive)

Task item: Give recorded GI50 with SK-OV-3 for the following compound: CC1(C)CCN2C(=O)C34CCCC3CC21S4 (configuration not stated)
Reply: > 100 µM (inactive)

Task item: Lab note: need GI50 for CCOC(=O)C1CSCCSC1 on SK-OV-3, anyone have it?
Reply: > 100 µM (inactive)

Task item: Value wanted: GI50 (SK-OV-3) of entry COc1ccc(Cn2nc(OCc3ccccn3)c3cc([N+](=O)[O-])ccc32)cc1
Reply: 63.7 µM (inactive)

Task item: Given the entry CC[C@]1(Cc2ccc(OC)c(OC)c2)C=[N+]([O-])O[C@H](OC2CCCC2(c2ccccc2)c2ccccc2)[C@@H]1OC(=O)c1ccccc1 (some centres not stated) , what GI50 was observed with SK-OV-3?
Reply: > 47.9 µM (inactive)

Task item: Form entry - test system: SK-OV-3; read-out: GI50; compound: Cn1c2c(c3ccccc31)CCN1C(=O)CN(C(=O)C3CCCCC3)CC21 (configuration not stated)
Reply: > 100 µM (inactive)

Task item: Form field - read-out: GI50; system: SK-OV-3; submitted item: COC(=O)[C@H](Cc1c[nH]c2ccccc12)NC(=O)c1ccc(CNC(=O)/C(C)=C/c2ccccc2)cc1
Reply: > 100 µM (inactive)

Task item: Given the entry CCCCC1(C2c3ccccc3Oc3ccccc32)C(=O)N(c2ccccc2)N(c2ccccc2)C1=O , what GI50 was observed with SK-OV-3?
Reply: > 100 µM (inactive)

Task item: Report GI50 for CC(C)(C)c1cc(C(C)(C)C)c(P=C(Cl)Cl)c(C(C)(C)C)c1 (configuration not stated) tested on SK-OV-3.
Reply: > 100 µM (inactive)

Task item: Report GI50 for O=c1ccn(Cc2ccccc2CCl)c(=O)[nH]1 tested on SK-OV-3.
Reply: 46.5 µM (inactive)

Task item: Find the measured GI50: item CC(C)(C)OC(=O)NC(Cc1ccccc1)C(=S)N1CCCC1 (configuration not stated) , target or system SK-OV-3.
Reply: > 100 µM (inactive)

Task item: Under SK-OV-3: GI50 value of O=C(O)c1nnsc1-c1csnn1 ?
Reply: > 100 µM (inactive)

Task item: State its GI50 on SK-OV-3: CC1(C)C(O)c2ccccc2OC1N1CCN(C2Oc3ccccc3C(O)C2(C)C)CC1 (configuration not stated)
Reply: > 100 µM (inactive)

Task item: Lab note: need GI50 for Cn1c(N)c(Cc2ccc(Cl)cc2)c(=O)[nH]c1=O on SK-OV-3, anyone have it?
Reply: > 100 µM (inactive)

Task item: Value wanted: GI50 (SK-OV-3) of entry Cc1cc(C)c(C2[C@H]3C(=O)N(c4ccc(Cc5ccc(N6C(=O)[C@@H]7ON(c8ccccc8)C(c8c(C)cc(C)cc8C)[C@@H]7C6=O)cc5)cc4)C(=O)[C@H]3ON2c2ccccc2)c(C)c1 (some centres not stated)
Reply: > 100 µM (inactive)

Task item: Test system SK-OV-3; read-out GI50; what value for O=C(/C=C/c1cccc(Oc2ccccc2)c1)NCc1ccc(C(=O)NCCc2ccccc2)cc1 ?
Reply: > 100 µM (inactive)

Task item: GET /values?readout=GI50&system=SK-OV-3&item= CCCCc1c2c(nc3c1CCCC3=O)C(=O)CCC2
Reply: > 100 µM (inactive)

Task item: // lookup GI50 | system=SK-OV-3 | key= CCOC(=O)/C(=C\NC[C@@H](C)O)c1nc2ccccc2[nH]1
Reply: > 100 µM (inactive)

Task item: Query the reported GI50 for SK-OV-3; item: Cc1ccsc1/C=N/Nc1cc(C)c2ccccc2n1
Reply: 17.3 µM (inactive)

Task item: For the record S=C(/C=C1\SC(=N\c2ccccc2)/C(=N/c2ccccc2)N1c1ccccc1)Nc1ccccc1 , what value of GI50 is listed for SK-OV-3?
Reply: 67.3 µM (inactive)

Task item: Request - read-out GI50 | tested on SK-OV-3 | compound Cc1cc(NS(=O)(=O)c2ccc(NC(=O)c3cccc4c(Nc5ccc(S(=O)(=O)Nc6cc(C)on6)cc5)c5ccc(Cl)cc5nc34)cc2)no1
Reply: > 100 µM (inactive)

Task item: Record COc1cc(O)c2c(=O)c3cccc(C)c3[nH]c2c1 : what is its GI50 with SK-OV-3?
Reply: > 10 µM (inactive)
